The measured values listed here are drawn from ChEMBL document CHEMBL1129118.

# MEASURED_TARGET: Glutamate NMDA receptor
# TEST_SUMMARY: Binding affinity to the glutamate site of the NMDA receptor was measured by competitive inhibition of binding of [3H]-CGP- 39653 to rat or porcine cerebral cortex membranes
# Assay type: cell membranes, Membrane
Examples of compounds with documented log10 Ki follow.
QUANTITY_KIND: log10 Ki (log10 of the value in µM)

{"COMPOUND": "N[C@H](Cc1nc2ncccc2cc1CP(=O)(O)O)C(=O)O", "QUANTITY_KIND": "log10 Ki", "RESULT": -1.13}
{"COMPOUND": "COc1cc2cc(CP(=O)(O)O)c(C[C@@H](N)C(=O)O)nc2cc1OC", "QUANTITY_KIND": "log10 Ki", "RESULT": -0.02}
{"COMPOUND": "CCc1cc2cc(CP(=O)(O)O)c(C[C@@H](N)C(=O)O)nc2cc1CC", "QUANTITY_KIND": "log10 Ki", "RESULT": -2.40}
{"COMPOUND": "Cc1cc2cc(CP(=O)(O)O)c(C[C@@H](N)C(=O)O)nc2cc1C", "QUANTITY_KIND": "log10 Ki", "RESULT": -2.30}
{"COMPOUND": "N[C@H](Cc1nc2cccc(Cl)c2cc1CP(=O)(O)O)C(=O)O", "QUANTITY_KIND": "log10 Ki", "RESULT": -0.92}
{"COMPOUND": "NC(Cc1nc2cc(Cl)c(Cl)cc2nc1CP(=O)(O)O)C(=O)O (stereo unspecified)", "QUANTITY_KIND": "log10 Ki", "RESULT": -2.47}
{"COMPOUND": "Cc1cc2cc(CP(=O)(O)O)c(C[C@@H](N)C(=O)O)nc2cc1Cl", "QUANTITY_KIND": "log10 Ki", "RESULT": -2.40}
{"COMPOUND": "NC(Cc1oc2ccccc2c1CP(=O)(O)O)C(=O)O (stereo unspecified)", "QUANTITY_KIND": "log10 Ki", "RESULT": 0.43}
{"COMPOUND": "NC(Cc1cc2ccccc2cc1CP(=O)(O)O)C(=O)O (stereo unspecified)", "QUANTITY_KIND": "log10 Ki", "RESULT": -0.85}
{"COMPOUND": "N[C@H](Cc1nc2ccccc2cc1CP(=O)(O)O)C(=O)O", "QUANTITY_KIND": "log10 Ki", "RESULT": -0.91}
{"COMPOUND": "Cc1cc2cc(CP(=O)(O)O)c(C[C@H](N)C(=O)O)nc2cc1C", "QUANTITY_KIND": "log10 Ki", "RESULT": -0.37}

###

# MEASURED_TARGET: Glutamate NMDA receptor
# TEST_SUMMARY: Binding affinity to the glutamate site of the NMDA receptor was measured by competitive inhibition of binding of [3H]-CGP- 39653 to rat or porcine cerebral cortex membranes
pKi: −log10 of the molar value.

{"STRUCTURE_AS_SMILES": "Cc1ccc2cc(CP(=O)(O)O)c(C[C@@H](N)C(=O)O)nc2c1", "pKi": 7.27}
{"STRUCTURE_AS_SMILES": "N[C@H](Cc1nc2cc(Cl)ccc2cc1CP(=O)(O)O)C(=O)O", "pKi": 7.70}
{"STRUCTURE_AS_SMILES": "N[C@H](Cc1nc2c(Cl)cc(Cl)cc2cc1CP(=O)(O)O)C(=O)O", "pKi": 7.54}
